MEASUREMENT_TARGET: cDNA-expressed human hepatic CYP3A4 (Homo sapiens (Human), UniProt P08684)
Sequence (P08684 whole entry): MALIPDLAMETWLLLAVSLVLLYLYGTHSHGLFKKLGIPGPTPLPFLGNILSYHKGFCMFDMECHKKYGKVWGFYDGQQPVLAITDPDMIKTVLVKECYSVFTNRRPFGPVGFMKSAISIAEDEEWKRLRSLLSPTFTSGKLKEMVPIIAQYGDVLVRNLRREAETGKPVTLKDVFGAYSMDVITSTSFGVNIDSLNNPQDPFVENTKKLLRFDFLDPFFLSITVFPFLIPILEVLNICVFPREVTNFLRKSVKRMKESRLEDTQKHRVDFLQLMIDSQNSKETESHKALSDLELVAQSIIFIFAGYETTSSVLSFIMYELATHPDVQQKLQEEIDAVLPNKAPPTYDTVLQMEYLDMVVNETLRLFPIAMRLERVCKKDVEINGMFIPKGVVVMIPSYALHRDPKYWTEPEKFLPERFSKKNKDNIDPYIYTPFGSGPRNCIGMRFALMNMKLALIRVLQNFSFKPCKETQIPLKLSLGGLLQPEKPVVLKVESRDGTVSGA
METHOD: Measurement of CYP (IC50 of P450 CYP3A4), BFC substrate
Type: in vitro ADME
TEST_CONDITIONS: 20 minutes
Exam item: assign t to entries whose IC50 is below 6 µM and f to entries at or above 6 µM. Note that a value of exactly 6 µM receives f.

Sample answers from the record:
- COMPOUND: "C=CCN1CC(=O)N2[C@@H](Cc3ccc(O)cc3)C(=O)N(Cc3cccc4c(C(=O)N5CCN(S(=O)(=O)CC)CC5)cn(C)c34)C[C@@H]2N1C(=O)NCc1ccccc1 [Compound E-16]"
  CATEGORY_LABEL: "t"
- COMPOUND: "C=CCN1CC(=O)N2[C@@H](Cc3ccc(O)cc3)C(=O)N(Cc3cccc4c(C(=O)NC5CCN(C(C)=O)CC5)cn(C)c34)C[C@@H]2N1C(=O)NCc1ccccc1 [Compound F-64]"
  CATEGORY_LABEL: "t"
- COMPOUND: "C=CCN1CC(=O)N2[C@@H](Cc3ccc(O)cc3)C(=O)N(Cc3cccc4c(C(=O)Nc5ccc(NCCN(C)C)nc5)cn(C)c34)C[C@@H]2N1C(=O)NCc1ccccc1 [Compound G-23]"
  CATEGORY_LABEL: "f"
- COMPOUND: "C=CCN1CC(=O)N2C(CN(Cc3cccc4c(C(=O)Nc5ccc(NCCN6CCC(O)CC6)nc5)cn(C)c34)C(=O)[C@@H]2Cc2ccc(O)cc2)N1C(=O)NCc1ccccc1 (stereo partly shown) [Compound G-29]"
  CATEGORY_LABEL: "t"
- COMPOUND: "C=CCN1CC(=O)N2[C@@H](Cc3ccc(O)cc3)C(=O)N(Cc3cccc4c(-c5ccc(C(=O)Nc6cccc(OCc7ccccc7)c6)cc5)cn(C)c34)C[C@@H]2N1C(=O)NCc1ccccc1 [Compound D-20]"
  CATEGORY_LABEL: "f"
- COMPOUND: "C=CCN1CC(=O)N2[C@@H](Cc3ccc(O)cc3)C(=O)N(Cc3cccc4c(C(=O)NCCCC(=O)O)cn(C)c34)C[C@@H]2N1C(=O)NCc1ccccc1 [Compound F-24]"
  CATEGORY_LABEL: "f"
- COMPOUND: "C=CCN1CC(=O)N2C(CN(Cc3cccc4c(C(=O)Nc5ccc(N6CCN(C)CC6)nc5)cn(C)c34)C(=O)[C@@H]2Cc2ccc(O)cc2)N1C(=O)NCc1ccccc1 (stereo partly shown) [Compound G-41]"
  CATEGORY_LABEL: "f"
- COMPOUND: "C=CCN1CC(=O)N2[C@@H](Cc3ccc(O)cc3)C(=O)N(Cc3cccc4c(-c5ccc(NC(=O)Nc6ccccc6)nc5)cn(C)c34)C[C@@H]2N1C(=O)NCc1ccccc1 [Compound D-85]"
  CATEGORY_LABEL: "f"
- COMPOUND: "C=CCN1CC(=O)N2[C@@H](Cc3ccc(O)cc3)C(=O)N(Cc3cccc4c(C(=O)N5CCC(C(=O)N(C)CCN(C)C)CC5)cn(C)c34)C[C@@H]2N1C(=O)NCc1ccccc1 [Compound E-54]"
  CATEGORY_LABEL: "t"

Below: the item to evaluate.
Problem: Does C=CCN1CC(=O)N2[C@@H](Cc3ccc(O)cc3)C(=O)N(Cc3cccc4c(C(=O)NN5CCN(C6CCCC6)CC5)cn(C)c34)C[C@@H]2N1C(=O)NCc1ccccc1 [Compound F-59] have IC50 strictly under 6 µM?
Result: t

These entries and their values trace back to patent US8940739B2.
